assayed_system: PDK1/PDHK1 (Homo sapiens)
Construct: purchased Reaction Biology Corporation
Sequence (Q15118 29-436): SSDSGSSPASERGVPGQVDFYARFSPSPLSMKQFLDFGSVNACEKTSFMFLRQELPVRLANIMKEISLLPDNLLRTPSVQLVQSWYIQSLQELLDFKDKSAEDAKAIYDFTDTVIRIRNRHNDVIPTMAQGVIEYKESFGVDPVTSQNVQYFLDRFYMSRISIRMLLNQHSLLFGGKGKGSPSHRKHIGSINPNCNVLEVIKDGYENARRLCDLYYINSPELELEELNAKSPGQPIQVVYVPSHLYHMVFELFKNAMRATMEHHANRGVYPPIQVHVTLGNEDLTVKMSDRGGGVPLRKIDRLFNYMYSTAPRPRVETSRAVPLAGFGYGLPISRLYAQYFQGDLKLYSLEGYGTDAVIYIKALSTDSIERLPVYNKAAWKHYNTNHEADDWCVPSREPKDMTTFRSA
protocol_details: HotSpot kinase assay
Assay type: biochemical
assay_setup: read-out: IC50 (M) of Control Compound
experimental_endpoint: IC50 (M)
Numbers only here, please. The scale is M.

Request: Look up and report measured IC50 for this entry: O=C1Nc2ccc(I)cc2/C1=C/c1cc(Br)c(O)c(Br)c1 [GW5074, reference compound]
Result: 8.63e-06

====

assayed_system: UniProt Q05655
Sequence (Q05655 whole entry): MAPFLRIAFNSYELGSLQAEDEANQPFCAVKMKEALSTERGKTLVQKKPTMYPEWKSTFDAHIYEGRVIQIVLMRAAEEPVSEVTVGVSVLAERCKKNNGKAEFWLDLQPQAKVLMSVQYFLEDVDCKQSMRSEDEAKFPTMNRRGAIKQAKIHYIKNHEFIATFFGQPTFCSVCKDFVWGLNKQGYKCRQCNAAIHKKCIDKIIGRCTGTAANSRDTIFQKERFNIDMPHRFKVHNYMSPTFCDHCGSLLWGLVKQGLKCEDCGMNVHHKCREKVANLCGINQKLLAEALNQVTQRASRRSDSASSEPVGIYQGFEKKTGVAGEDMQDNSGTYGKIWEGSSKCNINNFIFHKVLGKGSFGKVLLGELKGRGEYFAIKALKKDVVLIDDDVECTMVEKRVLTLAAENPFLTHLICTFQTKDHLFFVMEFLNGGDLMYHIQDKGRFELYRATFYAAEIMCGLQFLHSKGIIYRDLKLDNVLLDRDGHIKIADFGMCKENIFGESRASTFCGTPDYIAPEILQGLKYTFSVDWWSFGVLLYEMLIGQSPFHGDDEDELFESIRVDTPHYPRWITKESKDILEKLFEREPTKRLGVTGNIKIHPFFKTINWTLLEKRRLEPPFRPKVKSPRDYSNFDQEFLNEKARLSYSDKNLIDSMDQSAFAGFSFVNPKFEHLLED
experimental_endpoint: IC50 (nM)
Report as a plain number; the unit nM is understood.

Request: Look up and report measured IC50 (UniProt Q05655) for the following molecule: CO[C@@H]1[C@H](N(C)C(=O)CCC(=O)NCc2cn(CCCS(=O)(=O)O)nn2)C[C@H]2O[C@]1(C)n1c3ccccc3c3c4c(c5c6ccccc6n2c5c31)C(=O)NC4 [CIMSS]
Result: 3.64

====

assayed_system: AKT1 (Homo sapiens, UniProt P31749)
Sequence (P31749 whole entry): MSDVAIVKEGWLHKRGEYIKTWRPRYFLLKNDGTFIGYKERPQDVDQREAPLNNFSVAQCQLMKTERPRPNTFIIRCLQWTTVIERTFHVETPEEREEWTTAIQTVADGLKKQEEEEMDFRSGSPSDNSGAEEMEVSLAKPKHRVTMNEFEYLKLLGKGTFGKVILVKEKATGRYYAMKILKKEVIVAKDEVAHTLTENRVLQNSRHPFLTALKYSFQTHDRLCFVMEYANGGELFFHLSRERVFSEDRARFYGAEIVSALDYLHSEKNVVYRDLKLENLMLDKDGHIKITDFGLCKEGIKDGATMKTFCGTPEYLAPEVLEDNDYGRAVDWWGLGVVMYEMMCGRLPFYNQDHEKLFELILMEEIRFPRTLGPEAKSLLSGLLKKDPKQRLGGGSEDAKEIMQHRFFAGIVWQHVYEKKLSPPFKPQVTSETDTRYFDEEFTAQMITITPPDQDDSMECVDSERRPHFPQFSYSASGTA
experimental_endpoint: IC50 (nM)
Give a bare numeral; the unit nM is implied.

Request: Answer with the recorded IC50 of CO[C@@H]1[C@H](N(C)C(=O)CCC(=O)NCc2cn(CCCS(=O)(=O)O)nn2)C[C@H]2O[C@]1(C)n1c3ccccc3c3c4c(c5c6ccccc6n2c5c31)C(=O)NC4 only.
Result: 461

====

assayed_system: TTBK1 (Homo sapiens, UniProt Q5TCY1)
Construct: purchased Reaction Biology Corporation
protocol_details: HotSpot kinase assay
Format: biochemical
assay_setup: read-out: IC50 (M) of Control Compound
experimental_endpoint: IC50 (M)
The response must be a number in M with no trailing unit.

Request: Please supply the value of reported IC50 for the item Oc1ccc(-c2nc(-c3ccncc3)c(-c3ccc(F)cc3)[nH]2)cc1 [SB202190, reference compound]
Result: 6.89e-06

====

assayed_system: AMPK(A2/B2/G2) (Homo sapiens, UniProt P54646)
Construct: purchased Reaction Biology Corporation
protocol_details: HotSpot kinase assay
Type: biochemical
assay_setup: read-out: IC50 (M) of Control Compound
experimental_endpoint: IC50
# include the unit after the value

Request: Specify reported IC50 for the molecule shown: Cn1cc(C2=C(c3cn(CCCSC(=N)N)c4ccccc34)C(=O)NC2=O)c2ccccc21 [Ro-31-8220, reference compound]
Result: 1e-07 M

====

protocol_details: cell proliferation and viability, ~50% confluent
assay_setup: human, cell proliferation and viability, odu as a percentage of the DMSO control, 50 μM, 120 h (Fig 1d source data)
experimental_endpoint: viability at 120 h, 50 µM (%)
Entry rule: numbers only, all in %.

Request: Name the recorded viability at 120 h, 50 µM of the molecule listed here: CO[C@@H]1[C@H](N(C)C(=O)CCC(=O)NCc2cn(CCCS(=O)(=O)O)nn2)C[C@H]2O[C@]1(C)n1c3ccccc3c3c4c(c5c6ccccc6n2c5c31)C(=O)NC4 [CIMSS]
Result: 93

====

assayed_system: ARAF (Homo sapiens, UniProt P10398)
Construct: purchased Reaction Biology Corporation
Sequence (P10398 whole entry): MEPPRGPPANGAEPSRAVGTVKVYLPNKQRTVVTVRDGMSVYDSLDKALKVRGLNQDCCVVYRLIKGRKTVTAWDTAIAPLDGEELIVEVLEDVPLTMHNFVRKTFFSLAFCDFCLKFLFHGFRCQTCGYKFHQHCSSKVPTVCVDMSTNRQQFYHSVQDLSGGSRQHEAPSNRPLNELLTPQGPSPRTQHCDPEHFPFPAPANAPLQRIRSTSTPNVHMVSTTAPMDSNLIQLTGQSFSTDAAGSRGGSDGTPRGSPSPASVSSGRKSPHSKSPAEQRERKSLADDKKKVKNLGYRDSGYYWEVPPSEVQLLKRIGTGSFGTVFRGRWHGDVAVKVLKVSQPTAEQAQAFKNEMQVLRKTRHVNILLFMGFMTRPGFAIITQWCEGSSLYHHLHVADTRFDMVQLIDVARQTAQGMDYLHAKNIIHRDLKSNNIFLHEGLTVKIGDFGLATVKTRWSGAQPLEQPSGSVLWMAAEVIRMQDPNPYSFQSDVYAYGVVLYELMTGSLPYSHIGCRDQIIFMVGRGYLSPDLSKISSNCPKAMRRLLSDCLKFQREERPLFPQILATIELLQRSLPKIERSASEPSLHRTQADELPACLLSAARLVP
protocol_details: HotSpot kinase assay
Type: biochemical
assay_setup: read-out: IC50 (M) of Control Compound
experimental_endpoint: IC50 (M)
Expressed in M, but write only the number.

Request: Supply reported IC50 belonging to this compound: O=C1Nc2ccc(I)cc2/C1=C/c1cc(Br)c(O)c(Br)c1 [GW5074, reference compound]
Result: 1.39e-08

====

assayed_system: HPK1/MAP4K1 (Homo sapiens, UniProt Q92918)
Construct: purchased Reaction Biology Corporation
protocol_details: HotSpot kinase assay
Type: biochemical
assay_setup: read-out: IC50 (M) of Control Compound
experimental_endpoint: IC50 (M)
The answer is to be given in M; state only the numeric part.

Request: Consider the compound Cn1cc(C2=C(c3cn(CCCSC(=N)N)c4ccccc34)C(=O)NC2=O)c2ccccc21 [Ro-31-8220, reference compound] . State its measured IC50.
Result: 4.22e-08

====

assayed_system: TRPM7/CHAK1 (Homo sapiens)
Construct: purchased Reaction Biology Corporation
protocol_details: HotSpot kinase assay
Assay type: biochemical
assay_setup: read-out: IC50 (M) of Control Compound
Procedure: Kinase activity were performed by Reaction Biology Corporation using the “HotSpot” assay platform modified from the published procedure.
experimental_endpoint: IC50 (M)
State the answer as a number, implicitly in M.

Request: Name the recorded IC50 of the item CCCCCCCCCCCCCCCCn1cc[n+](Cc2ccccc2)c1C [NH125, reference compound] in your answer.
Result: 2.34e-05

====

assayed_system: PDK2/PDHK2 (Homo sapiens, UniProt Q15119)
Construct: purchased Reaction Biology Corporation
protocol_details: HotSpot kinase assay
Type: biochemical
assay_setup: read-out: IC50 (M) of Control Compound
experimental_endpoint: IC50 (M)
Answer format: numeric, M implied, no suffix.

Request: Complete the entry with IC50 for O=C1Nc2ccc(I)cc2/C1=C/c1cc(Br)c(O)c(Br)c1 [GW5074, reference compound]
Result: 5.05e-06

====

assayed_system: c-Src (Homo sapiens, UniProt P12931)
experimental_endpoint: IC50
Don't forget the unit after the value.

Request: Enter recorded IC50 with c-Src (Homo sapiens, UniProt P12931) for CO[C@@H]1[C@H](N(C)C(=O)CCC(=O)NCc2cn(CCCS(=O)(=O)O)nn2)C[C@H]2O[C@]1(C)n1c3ccccc3c3c4c(c5c6ccccc6n2c5c31)C(=O)NC4 here.
Result: 11.9 nM

====

protocol_details: in vitro
assay_setup: human, Huh-7.5 cells infected with SARS-CoV-2
experimental_endpoint: viability at 72 h, 50 µM (%)
Value expressed in %; do not type the unit.

Request: Give the measured viability at 72 h, 50 µM for CO[C@@H]1[C@H](N(C)C(=O)CCC(=O)NCc2cn(CCCS(=O)(=O)O)nn2)C[C@H]2O[C@]1(C)n1c3ccccc3c3c4c(c5c6ccccc6n2c5c31)C(=O)NC4
Result: 70.1

====

assayed_system: NEK6 (Homo sapiens)
Construct: purchased Reaction Biology Corporation
Sequence (Q9HC98 whole entry): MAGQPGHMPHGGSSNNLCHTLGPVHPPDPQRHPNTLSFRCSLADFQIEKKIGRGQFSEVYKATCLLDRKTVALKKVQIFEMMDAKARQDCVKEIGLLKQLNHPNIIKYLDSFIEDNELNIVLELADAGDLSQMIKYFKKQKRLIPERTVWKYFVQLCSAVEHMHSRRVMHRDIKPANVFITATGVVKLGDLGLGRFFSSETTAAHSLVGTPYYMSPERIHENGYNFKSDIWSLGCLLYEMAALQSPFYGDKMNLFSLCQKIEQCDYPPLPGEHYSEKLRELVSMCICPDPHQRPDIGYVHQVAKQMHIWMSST
protocol_details: HotSpot kinase assay
Format: biochemical
assay_setup: read-out: IC50 (M) of Control Compound
Method: Kinase activity were performed by Reaction Biology Corporation using the “HotSpot” assay platform modified from the published procedure.
experimental_endpoint: IC50 (M)
Give a bare numeral; the unit M is implied.

Request: // output IC50; input O=C1Nc2ccc3ncsc3c2/C1=C/c1cnc[nH]1 [PKR Inhibitor, reference compound] ; system NEK6 (Homo sapiens)
Result: 9.32e-06

====

assayed_system: DYRK4 (Homo sapiens, UniProt Q9NR20)
Construct: purchased Reaction Biology Corporation
protocol_details: HotSpot kinase assay
Type: biochemical
assay_setup: read-out: IC50 (M) of Control Compound
experimental_endpoint: IC50 (M)
A number alone suffices; assume M.

Request: Supply recorded IC50 for O=C1Nc2ccc(I)cc2/C1=C/c1cc(Br)c(O)c(Br)c1 [GW5074, reference compound] here.
Result: 4.12e-06

====

assayed_system: AMPK(A2/B1/G1) (Homo sapiens)
Construct: purchased Reaction Biology Corporation
Sequence (P54646 whole entry): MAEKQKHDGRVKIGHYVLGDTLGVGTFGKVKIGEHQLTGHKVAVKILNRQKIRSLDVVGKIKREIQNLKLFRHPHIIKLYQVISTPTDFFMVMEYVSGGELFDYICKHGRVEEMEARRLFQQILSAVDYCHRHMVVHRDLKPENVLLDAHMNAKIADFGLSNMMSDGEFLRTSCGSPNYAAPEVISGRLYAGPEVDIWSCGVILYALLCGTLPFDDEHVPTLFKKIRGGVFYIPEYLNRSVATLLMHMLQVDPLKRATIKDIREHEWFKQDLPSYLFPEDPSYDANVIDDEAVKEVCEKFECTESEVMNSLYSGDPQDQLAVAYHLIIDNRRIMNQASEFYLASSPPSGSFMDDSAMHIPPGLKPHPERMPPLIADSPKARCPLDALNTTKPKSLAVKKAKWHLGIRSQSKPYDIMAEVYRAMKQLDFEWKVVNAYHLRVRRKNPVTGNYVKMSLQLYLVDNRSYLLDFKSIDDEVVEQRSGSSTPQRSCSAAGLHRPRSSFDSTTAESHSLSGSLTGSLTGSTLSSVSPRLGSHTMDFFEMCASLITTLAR
Sequence (Q9Y478 whole entry partner): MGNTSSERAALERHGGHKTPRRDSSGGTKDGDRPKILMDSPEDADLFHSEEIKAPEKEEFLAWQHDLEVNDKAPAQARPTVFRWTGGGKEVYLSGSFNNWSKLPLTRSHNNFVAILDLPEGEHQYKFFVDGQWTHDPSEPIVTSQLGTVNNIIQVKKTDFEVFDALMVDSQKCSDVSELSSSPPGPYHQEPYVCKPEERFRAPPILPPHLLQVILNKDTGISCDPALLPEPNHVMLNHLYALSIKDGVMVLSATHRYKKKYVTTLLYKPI
Sequence (P54619 whole entry partner): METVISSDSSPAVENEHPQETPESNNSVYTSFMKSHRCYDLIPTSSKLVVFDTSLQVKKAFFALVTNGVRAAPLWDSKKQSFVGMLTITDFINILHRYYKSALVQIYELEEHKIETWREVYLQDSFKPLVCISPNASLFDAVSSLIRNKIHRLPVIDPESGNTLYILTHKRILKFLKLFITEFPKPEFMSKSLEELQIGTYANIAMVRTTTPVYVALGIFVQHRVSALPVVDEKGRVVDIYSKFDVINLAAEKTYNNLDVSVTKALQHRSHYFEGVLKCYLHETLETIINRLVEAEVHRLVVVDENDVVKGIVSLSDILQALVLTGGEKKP
protocol_details: HotSpot kinase assay
Format: biochemical
assay_setup: read-out: IC50 (M) of Control Compound
Experimental: Kinase activity were performed by Reaction Biology Corporation using the “HotSpot” assay platform modified from the published procedure.
experimental_endpoint: IC50 (M)
Quick note: give the figure in M, leave out the unit.

Request: Supply measured IC50 of Cn1cc(C2=C(c3cn(CCCSC(=N)N)c4ccccc34)C(=O)NC2=O)c2ccccc21 [Ro-31-8220, reference compound] in your reply.
Result: 2.12e-07

====

assayed_system: AMPK (A2/B1/G3) (Homo sapiens, UniProt P54646)
Construct: purchased Reaction Biology Corporation
Sequence (P54646 whole entry): as the sequence (P54646 whole entry) above
Sequence (Q9Y478 whole entry partner): as the sequence (Q9Y478 whole entry partner) above
Sequence (Q9UGI9 whole entry partner): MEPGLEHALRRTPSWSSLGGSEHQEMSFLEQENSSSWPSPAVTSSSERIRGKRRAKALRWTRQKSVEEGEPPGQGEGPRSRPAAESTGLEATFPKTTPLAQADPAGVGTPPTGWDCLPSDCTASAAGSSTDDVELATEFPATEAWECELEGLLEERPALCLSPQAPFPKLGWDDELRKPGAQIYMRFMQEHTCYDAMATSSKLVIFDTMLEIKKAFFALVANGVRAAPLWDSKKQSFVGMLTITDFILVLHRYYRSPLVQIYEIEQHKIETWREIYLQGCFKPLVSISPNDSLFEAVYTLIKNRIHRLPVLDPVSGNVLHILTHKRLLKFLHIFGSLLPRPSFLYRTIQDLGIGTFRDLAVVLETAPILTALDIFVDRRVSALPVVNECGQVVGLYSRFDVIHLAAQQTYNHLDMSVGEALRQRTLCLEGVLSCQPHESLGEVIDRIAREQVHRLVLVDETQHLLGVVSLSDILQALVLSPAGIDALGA
protocol_details: HotSpot kinase assay
Assay type: biochemical
assay_setup: read-out: IC50 (M) of Control Compound
experimental_endpoint: IC50
Units required after the number.

Request: Give IC50 for Cn1cc(C2=C(c3cn(CCCSC(=N)N)c4ccccc34)C(=O)NC2=O)c2ccccc21 [Ro-31-8220, reference compound]
Result: 2.96e-07 M

====

assayed_system: COT1/MAP3K8 (Homo sapiens, UniProt P41279)
Construct: purchased Reaction Biology Corporation
Sequence (P41279 whole entry): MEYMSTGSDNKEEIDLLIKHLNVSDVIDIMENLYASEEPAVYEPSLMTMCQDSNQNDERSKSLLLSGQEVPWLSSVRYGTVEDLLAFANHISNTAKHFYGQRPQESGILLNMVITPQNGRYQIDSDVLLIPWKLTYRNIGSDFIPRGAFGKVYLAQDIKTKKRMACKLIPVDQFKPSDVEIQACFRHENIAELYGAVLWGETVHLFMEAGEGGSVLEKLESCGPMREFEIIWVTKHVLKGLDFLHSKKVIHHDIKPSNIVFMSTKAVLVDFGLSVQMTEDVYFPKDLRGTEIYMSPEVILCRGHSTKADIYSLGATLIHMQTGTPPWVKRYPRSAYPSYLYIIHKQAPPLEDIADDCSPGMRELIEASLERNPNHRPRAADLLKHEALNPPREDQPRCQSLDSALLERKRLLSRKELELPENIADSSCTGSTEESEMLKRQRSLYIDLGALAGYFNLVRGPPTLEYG
protocol_details: HotSpot kinase assay
Format: biochemical
assay_setup: read-out: IC50 (M) of Control Compound
experimental_endpoint: IC50 (M)
Numeric answer only, unit M assumed.

Request: Return reported IC50. Input molecule: Cn1cc(C2=C(c3cn(CCCSC(=N)N)c4ccccc34)C(=O)NC2=O)c2ccccc21 [Ro-31-8220, reference compound]
Result: 7.47e-06

====

protocol_details: in vitro
assay_setup: human, Huh-7.5 cells infected with SARS-CoV-2
experimental_endpoint: viability at 72 h, 0.78125 µM (%)
Lab book: enter the figure in %, no units written.

Request: For the compound CO[C@@H]1[C@H](N(C)C(=O)CCC(=O)NCc2cn(CCCS(=O)(=O)O)nn2)C[C@H]2O[C@]1(C)n1c3ccccc3c3c4c(c5c6ccccc6n2c5c31)C(=O)NC4 , report viability at 72 h, 0.78125 µM.
Result: 94.8
